Biological target: T1, human protease nexin-1 (human, UniProt P07093 20-398)
T1 sequence (looked up): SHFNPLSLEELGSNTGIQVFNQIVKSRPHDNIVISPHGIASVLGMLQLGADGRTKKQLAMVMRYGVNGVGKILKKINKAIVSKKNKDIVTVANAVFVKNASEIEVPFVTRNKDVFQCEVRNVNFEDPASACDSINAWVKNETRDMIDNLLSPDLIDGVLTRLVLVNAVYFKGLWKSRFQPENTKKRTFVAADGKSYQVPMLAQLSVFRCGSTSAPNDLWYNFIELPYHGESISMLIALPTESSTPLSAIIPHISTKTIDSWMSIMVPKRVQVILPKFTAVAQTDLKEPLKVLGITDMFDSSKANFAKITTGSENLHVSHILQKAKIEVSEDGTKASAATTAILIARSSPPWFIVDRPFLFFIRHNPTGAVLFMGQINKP
Assay: cell-based or functional assay
Measure: IC50 (thrombin activity assay, 10 nM PN-1, 1 nM thrombin)
Your answer should be a number followed by the unit of measure.

Ask: What measured IC50 (thrombin activity assay, 10 nM PN-1, 1 nM thrombin) goes with B11 (VHH, Monovalent VHH from the synthetic hs2dAb library, made in E. coli WK6, purified by its His tag, detected by anti-cMyc or anti-6xHis; also called VHH B11; BI 1; not shown: cMyc tag and 6xHis tag (pHEN2 vector)) VHH: EVQLQASGGGFVQPGGSLRLSCAASGSTWFREIMGWFRQAPGKEREFVSAISSDPTWHAYYADSVKGRFTISRDNSKNTVYLQMNSLRAEDTATYYCAPLAGTESIHWWDPWHESSYWGQGTQVTVSS ?
Result: 50 nM

Ask: How about this binder: B11-F06 (VHH, Bivalent (biparatopic) tandem B11-linker-F06; also called bivalent hybribody B11-F06; bivalent VHH B11F06) EVQLQASGGGFVQPGGSLRLSCAASGSTWFREIMGWFRQAPGKEREFVSAISSDPTWHAYYADSVKGRFTISRDNSKNTVYLQMNSLRAEDTATYYCAPLAGTESIHWWDPWHESSYWGQGTQVTVSSGGGSGGGSGGGSGGGSEVQLQASGGGFVQPGGSLRLSCAASGDTWSLEIMGWFRQAPGKEREFVSAISSEDGWHAYYADSVKGRFTISRDNSKNTVYLQMNSLRAEDTATYYCAKIENWIQAVEGEMSDYWGQGTQVTVSSHHHHHH
Result: 62 nM

Ask: Moving on to B11-A08 (VHH, Bivalent (biparatopic) tandem B11-linker-A08; also called bivalent hybribody B11-A08; bivalent VHH B11A08) EVQLQASGGGFVQPGGSLRLSCAASGSTWFREIMGWFRQAPGKEREFVSAISSDPTWHAYYADSVKGRFTISRDNSKNTVYLQMNSLRAEDTATYYCAPLAGTESIHWWDPWHESSYWGQGTQVTVSSGGGSGGGSGGGSGGGSEVQLQASGGGFVQPGGSLRLSCAASGYYSYSSTMGWFRQAPGKEREFVSAISFYSDMAHYYADSVKGRFTISRDNSKNTVYLQMNSLRAEDTATYYCAAFSKLGKIKYWGQGTQVTVSSHHHHHH
Result: 142 nM

Ask: Quick one: F06 (VHH, Monovalent VHH from the synthetic hs2dAb library; His-tagged, detected by anti-cMyc or anti-6xHis; also called VHH F06; single domain antibody F06; not shown: cMyc tag and 6xHis tag (pHEN2 vector)) VHH: EVQLQASGGGFVQPGGSLRLSCAASGDTWSLEIMGWFRQAPGKEREFVSAISSEDGWHAYYADSVKGRFTISRDNSKNTVYLQMNSLRAEDTATYYCAKIENWIQAVEGEMSDYWGQGTQVTVSS
Result: 290 nM

Ask: Also need B11-Bv (VHH, Bivalent (monoparatopic) tandem of two B11 VHHs; also called bivalent hybribody B11-Bv; bivalent VHH B11bv) EVQLQASGGGFVQPGGSLRLSCAASGSTWFREIMGWFRQAPGKEREFVSAISSDPTWHAYYADSVKGRFTISRDNSKNTVYLQMNSLRAEDTATYYCAPLAGTESIHWWDPWHESSYWGQGTQVTVSSAAAEVQLQASGGGFVQPGGSLRLSCAASGSTWFREIMGWFRQAPGKEREFVSAISSDPTWHAYYADSVKGRFTISRDNSKNTVYLQMNSLRAEDTATYYCAPLAGTESIHWWDPWHESSYWGQGTQVTVSSHHHHHH , thanks.
Result: 41 nM

Ask: What do we get for A08 (VHH, Monovalent VHH from the synthetic hs2dAb library; His-tagged, detected by anti-cMyc or anti-6xHis; also called VHH A08; single domain antibody A08; not shown: cMyc tag and 6xHis tag (pHEN2 vector)) VHH: EVQLQASGGGFVQPGGSLRLSCAASGYYSYSSTMGWFRQAPGKEREFVSAISFYSDMAHYYADSVKGRFTISRDNSKNTVYLQMNSLRAEDTATYYCAAFSKLGKIKYWGQGTQVTVSS ?
Result: 960 nM
